# Test system: Rattus norvegicus
# Assay Name: Tested for % inhibition in carrageenan-induced rat paw adema after peroral administration of 100 mg/kg dose at 2 hours
# Format: functional
# Run Conditions: route oral
Outcome Measure: inhibition in vivo at 100 mg/kg (%)
Entry rule: numbers only, all in %.

Data request: What does the data say about its inhibition in vivo at 100 mg/kg? Entry: "c1ccc(-c2nnc(-c3nsc4ccccc34)s2)cc1"
Data returned: 10

Data request: What does the data say about its inhibition in vivo at 100 mg/kg? Entry: "COc1ccc(-c2nnc(-c3nsc4ccccc34)o2)cc1"
Data returned: 21

Data request: What does the data say about its inhibition in vivo at 100 mg/kg? Entry: "CCc1nnc(-c2nsc3ccccc23)o1"
Data returned: 10

Data request: What does the data say about its inhibition in vivo at 100 mg/kg? Entry: "Clc1ccc(-c2nnc(-c3nsc4ccccc34)o2)cc1"
Data returned: 13

Data request: What does the data say about its inhibition in vivo at 100 mg/kg? Entry: "Clc1ccc(Nc2nnc(-c3nsc4ccccc34)o2)cc1"
Data returned: 14

Data request: What does the data say about its inhibition in vivo at 100 mg/kg? Entry: "CCn1c(S)nnc1-c1nsc2ccccc12"
Data returned: 57

Data request: What does the data say about its inhibition in vivo at 100 mg/kg? Entry: "Sc1nnc(-c2nsc3ccccc23)n1-c1ccccc1"
Data returned: 10
